Exercise: state measured growth for each of the compounds provided.
# System: T-47D breast
# Experiment Description: NCI-60 one-dose screen, 48 h (100 = growth as untreated, 0 = no growth, -100 = all killed)
# Test Conditions: 10 µM unless noted
This is part of a sample that, as a whole, favours compounds with a hit. Of some 83,000 tested, about 20% had one in any assay. Activity calls are given as the source filed them. How the source made its calls: active means growth percent below 10; inactive means the rest.

The reported T-47D breast growth of CC1(C)CC(=O)C2=C(C1)Oc1nc(N)c(C#N)c(N)c1C2c1ccc(F)cc1 (stereo unspecified) is 116% (inactive)

The reported T-47D breast growth of CCC(CCCN1C(=O)c2ccccc2C1=O)Nc1cc(OC)cc2cccnc12 (stereo unspecified) is 66.3% (inactive)

The reported T-47D breast growth of CCCCN(CCCC)CC(O)CN(CC)CC (stereo unspecified) is 97.6% (inactive)

The reported T-47D breast growth of O=c1c2c(c3ccccc3n1-c1ccccc1)NC(=S)NC2c1ccc(Cl)cc1 (stereo unspecified) is 67.4% (inactive)

The reported T-47D breast growth of CCCCCCCCCCCCOC(=N)N(C)C is 89.9% (inactive)

The reported T-47D breast growth of CC(=O)Nc1nc(C)c(C(=O)NNC(=O)Nc2ccccc2)s1 is 91.1% (inactive)
